The entries below come with measured Minimal Inhibitory Concentration (bioactivity data) values attached.
# Test system: C. perfringens
# Assay type: cell-based
# Design: unit not given here
# Particulars: strain A83-3; Table IV (separate study)
Please respond with just the number, no unit label.

C=C(NC(=O)C(=C)NC(=O)C(=C)NC(=O)c1ccc2c(n1)-c1coc(n1)C(=C)NC(=O)C(=C)NC(=O)c1nc(oc1C)C(=CC)NC(=O)c1csc(n1)CNC(=O)c1nc(oc1C)C(=CC(C)O)NC(=O)C(C(C)O)NC(=O)c1csc-2n1)C(N)=O (stereo not drawn) [Antibiotic 10381pre-b]
1.6
C=C(NC(=O)c1ccc2c(n1)-c1nc(oc1C)C(C)NC(=O)c1csc(n1)C(C)NC(=O)c1nc(oc1C)CNC(=O)C(C(C)C)NC(=O)c1csc-2n1)C(N)=O (stereo not drawn) [Antibiotic 10381w]
12.5
C=C(NC(=O)C(=C)NC(=O)C(=C)NC(=O)c1ccc2c(n1)-c1nc(oc1C)C(C)NC(=O)c1csc(n1)C(C)NC(=O)c1nc(oc1C)CNC(=O)C(C(C)C)NC(=O)c1csc-2n1)C(N)=O (stereo not drawn) [Antibiotic 10381x]
25.0

Quote Minimal Inhibitory Concentration (bioactivity data) reported for C=C1NC(=O)c2nc(oc2C)C(=CC)NC(=O)c2csc(n2)C(OC)NC(=O)c2nc(oc2C)C(=CC(C)O)NC(=O)C(C(C)O)NC(=O)c2csc(n2)-c2ccc(C(N)=O)nc2-c2coc(n2)C(=C)NC1=O (stereo not drawn) [Antibiotic 10381v] please.
0.8
